Entry source: patent US9850225B2

- system: PD-1/PD-L1 interaction (PD-1-Ig / PD-L1-His) (Homo sapiens (Human))
- Sequence (Q9NZQ7 other isoform, or with tags, fused parts or gaps): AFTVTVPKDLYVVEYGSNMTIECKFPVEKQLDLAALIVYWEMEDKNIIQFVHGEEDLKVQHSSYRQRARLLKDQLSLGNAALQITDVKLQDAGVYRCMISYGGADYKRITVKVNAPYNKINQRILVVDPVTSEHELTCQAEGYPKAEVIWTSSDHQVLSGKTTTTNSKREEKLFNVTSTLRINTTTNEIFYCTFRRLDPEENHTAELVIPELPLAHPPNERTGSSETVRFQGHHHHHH
- procedure.text: PD-1/PD-L1 Homogenous Time-Resolved Fluorescence (HTRF) binding assay
- recorded.conditions: PD-1/PD-L1 HTRF binding assay; value given as range class; read-out: Range or IC50
endpoint: IC50

INSERT INTO measurements (molecule, system, result) VALUES
  ('Cc1cc(OCc2cccc(-c3ccc4c(c3)OCCO4)c2C)cc(OCc2cncc(C#N)c2)c1CN[C@](C)(CO)C(=O)O', 'PD-1/PD-L1 interaction (PD-1-Ig / PD-L1-His) (Homo sapiens (Human))', '0.0006 to 0.01 µM'),
  ('Cc1c(COc2cc(OCc3cccc(C#N)c3)c(CN[C@@H](Cc3cncn3C)C(=O)O)cc2Cl)cccc1-c1ccc2c(c1)OCCO2', 'PD-1/PD-L1 interaction (PD-1-Ig / PD-L1-His) (Homo sapiens (Human))', '0.01 to 0.1 µM'),
  ('Cc1c(COc2cc(OCc3cncc(C#N)c3)c(CN[C@@H](CC(=O)O)C(=O)O)cc2Cl)cccc1-c1ccc2c(c1)OCCO2', 'PD-1/PD-L1 interaction (PD-1-Ig / PD-L1-His) (Homo sapiens (Human))', '0.0006 to 0.01 µM'),
  ('Cc1c(COc2cc(OCc3cccc(C#N)c3)c(CNC(Cc3c[nH]cn3)C(=O)O)cc2Cl)cccc1-c1ccc2c(c1)OCCO2 (stereo not shown)', 'PD-1/PD-L1 interaction (PD-1-Ig / PD-L1-His) (Homo sapiens (Human))', '0.0006 to 0.01 µM'),
  ('Cc1c(COc2cc(OCc3cccc(C#N)c3)c(CNC3(C(=O)O)COC3)cc2Cl)cccc1-c1ccc2c(c1)OCCO2', 'PD-1/PD-L1 interaction (PD-1-Ig / PD-L1-His) (Homo sapiens (Human))', '0.01 to 0.1 µM'),
  ('Cc1c(COc2ccc(CN[C@](C)(CO)C(=O)O)c(OCc3cccc(C(N)=O)c3)c2)cccc1-c1ccc2c(c1)OCCO2', 'PD-1/PD-L1 interaction (PD-1-Ig / PD-L1-His) (Homo sapiens (Human))', '0.0006 to 0.01 µM'),
  ('Cc1c(COc2cc(OCc3cccc(C#N)c3)c(CN[C@@H](CC#N)C(=O)O)cc2Cl)cccc1-c1ccc2c(c1)OCCO2', 'PD-1/PD-L1 interaction (PD-1-Ig / PD-L1-His) (Homo sapiens (Human))', '0.01 to 0.1 µM'),
  ('Cc1c(COc2cc(OCc3cccc(C#N)c3)c(CNC(C)(Cc3c[nH]cn3)C(=O)O)cc2Cl)cccc1-c1ccc2c(c1)OCCO2 (stereo not shown)', 'PD-1/PD-L1 interaction (PD-1-Ig / PD-L1-His) (Homo sapiens (Human))', '0.0006 to 0.01 µM'),
  ('Cc1c(COc2cc(OCc3cncc(C#N)c3)c(CN[C@@H](Cc3ccccn3)C(=O)O)cc2Cl)cccc1-c1ccc2c(c1)OCCO2', 'PD-1/PD-L1 interaction (PD-1-Ig / PD-L1-His) (Homo sapiens (Human))', '0.0006 to 0.01 µM'),
  ('Cc1c(COc2ccc(CNC(C)(CO)C(=O)O)c(OCc3cccc(C#N)c3)c2)cccc1-c1ccc2c(c1)OCCO2 (stereo not shown)', 'PD-1/PD-L1 interaction (PD-1-Ig / PD-L1-His) (Homo sapiens (Human))', '0.0006 to 0.01 µM'),
  ('CC(=O)NCCNCc1ccc(OCc2cccc(-c3ccccc3)c2C)cc1OCc1cccc2ccccc12', 'PD-1/PD-L1 interaction (PD-1-Ig / PD-L1-His) (Homo sapiens (Human))', '0.1 to 20 µM'),
  ('Cc1c(COc2cc(OCc3cccc(C#N)c3)c(CN[C@@H](C(=O)O)[C@H](C)O)cc2Cl)cccc1-c1ccc2c(c1)OCCO2', 'PD-1/PD-L1 interaction (PD-1-Ig / PD-L1-His) (Homo sapiens (Human))', '0.0006 to 0.01 µM'),
  ('Cc1c(COc2cc(OCc3cccc(C#N)c3)c(CN[C@H](CC(=O)O)C(=O)O)cc2Cl)cccc1-c1ccc2c(c1)OCCO2', 'PD-1/PD-L1 interaction (PD-1-Ig / PD-L1-His) (Homo sapiens (Human))', '0.01 to 0.1 µM');
